Assay: Particle size distribution of micronized (jet-milled) material, laser diffraction
Format: physicochemical
Conditions: Example 50 setup run, feed rate 9.6 kg/hr, venturi/mill pressures 10 psi
Assay Metric: dv50 (µm)

Entry Smiles | Unit Text | Quantitative Readout
N#CCC1(n2cc(-c3ncnc4[nH]ccc34)cn2)CN(S(=O)(=O)C2CC2)C1 | µm | 20

###

Test: Particle size distribution of micronized (jet-milled) material, laser diffraction
Format: physicochemical
Details: PSD method of Example 51, Helos laser diffractometer, suspension in water/Tween20

Entry Smiles | dv50
N#CCC1(n2cc(-c3ncnc4[nH]ccc34)cn2)CN(S(=O)(=O)C2CC2)C1 | 20 µm
